# Organism: Bos taurus
# assay.text: Displacement of ethidium from calf thymus DNA by fluorimetric method
quantity.kind: C50 (µM)
Reply with just the number (in µM).

Before answering, review these 2 worked examples.
smiles.record	result
CC(=O)Nc1ccc2c(Nc3ccc(NC(=O)c4ccc(Nc5cc[n+](C)cc5)cc4)cc3)cc[n+](C)c2c1.Cc1ccc(S(=O)(=O)[O-])cc1.Cc1ccc(S(=O)(=O)[O-])cc1	0.34
Cc1cc(C(=O)Nc2ccc(C(=O)Nc3ccc[n+](C)c3)cc2)ccc1C(=O)Nc1ccc(C(=O)Nc2ccc[n+](C)c2)cc1.Cc1ccc(S(=O)(=O)[O-])cc1.Cc1ccc(S(=O)(=O)[O-])cc1	1.2

Lab note: next compound to report on.
Lab note: measured C50 of `C[n+]1ccc(Nc2ccc(C(=O)Nc3ccc(Nc4cc[n+](C)c5cc(N)ccc45)cc3)c(N)c2)cc1.Cc1ccc(S(=O)(=O)[O-])cc1.Cc1ccc(S(=O)(=O)[O-])cc1` was 0.44
